The reported numbers originate from patent US11440923B2.

- Test system: SUDHL10 cells
- assay_comment: Induction of cytotoxicity in SUDHL10 cells (Assay 6)
- Assay type: cell-based
- condition_description: Homo sapiens, SU-DHL10, 5 h, 5 h, CellTiter-Glo; read-out: Cytotox SUDHL10 IC50 (median)
- Procedure: Assay 6 Induction of Cytotoxicity Upon Treatment of Cells with Selected Compounds In principle, compounds that induce apoptosis will concomitantly induce cell cytotoxicity. Therefore, cytotoxicity assays were run in parallel in SUDHL5 and SUDHL10 cells. As a control, medium without cells was also added to the plate. Cells were incubated in a humidified incubator at 37° C. overnight. […] Finally, luminescence was read at 0.1 ms, with a gain of 3000 using the PHERAstar FS microplate reader (BMG Labtech).
Field: label. Allowed values: Met (IC50 < 300 nM) or Not met (IC50 >= 300 nM).

[[record]]
compound = "Cc1c2c(nn1C)C(CCO)OCCCCn1c(C(=O)O)c(CCCOc3cccc4ccccc34)c3ccc(Cl)c-2c31 (racemic)"
target_desc = "SUDHL10 cells"
class_label = "Not met"

[[record]]
compound = "CCc1c2c(nn1C)C(c1ccccc1)OCCCCn1c(C(=O)O)c(CCCOc3cccc4cc(F)ccc34)c3ccc(Cl)c-2c31 (racemic)"
target_desc = "SUDHL10 cells"
class_label = "Not met"

[[record]]
compound = "CCc1c2c(nn1C)C(CCOC)OCCCCn1c(C(=O)O)c(CCCOc3cccc4cc(F)ccc34)c3ccc(Cl)c-2c31 (racemic)"
target_desc = "SUDHL10 cells"
class_label = "Met"

[[record]]
compound = "CCc1c2c(nn1C)C(CCN1CCC(F)(F)C1)OCCCCn1c(C(=O)O)c(CCCOc3cccc4cc(F)ccc34)c3ccc(Cl)c-2c31 (racemic) [Example 55]"
target_desc = "SUDHL10 cells"
class_label = "Met"

[[record]]
compound = "CCc1c2c(nn1C)C(CCN1CCOCC1)OCCCCn1c(C(=O)O)c(CCCOc3cccc4cc(F)ccc34)c3ccc(F)c-2c31 (racemic)"
target_desc = "SUDHL10 cells"
class_label = "Met"

[[record]]
compound = "CCc1c2c(nn1C)C(C1CC1)OCCCCn1c(C(=O)O)c(CCCOc3cccc4cc(F)ccc34)c3ccc(Cl)c-2c31 (racemic)"
target_desc = "SUDHL10 cells"
class_label = "Not met"

[[record]]
compound = "CCc1c2c(nn1C)C(Cc1ccccc1)OCCCCn1c(C(=O)O)c(CCCOc3cccc4cc(F)ccc34)c3ccc(Cl)c-2c31 (racemic)"
target_desc = "SUDHL10 cells"
class_label = "Not met"

[[record]]
compound = "Cc1c2c(nn1C)C(CCN1CCOCC1)OCCCCn1c(C(=O)O)c(CCCOc3cccc4ccccc34)c3cccc-2c31 (racemic)"
target_desc = "SUDHL10 cells"
class_label = "Not met"

[[record]]
compound = "Cc1c2c(nn1C)C(C)OCCCCn1c(C(=O)O)c(CCCOc3cccc4ccccc34)c3cccc-2c31 (racemic)"
target_desc = "SUDHL10 cells"
class_label = "Not met"

[[record]]
compound = "Cc1c2c(nn1C)C(CCN1CCOCC1)OCCCCn1c(C(=O)O)c(CCCOc3cccc4cc(F)ccc34)c3ccc(Cl)c-2c31 (racemic) [Example 16]"
target_desc = "SUDHL10 cells"
class_label = "Met"

[[record]]
compound = "COCCC1OCCCCn2c(C(=O)O)c(CCCOc3cccc4ccccc34)c3ccc(Cl)c(c32)-c2c1nn(C)c2C (racemic)"
target_desc = "SUDHL10 cells"
class_label = "Not met"

[[record]]
compound = "CCc1c2c(nn1C)C(CCCN1CCOCC1)OCCCCn1c(C(=O)O)c(CCCOc3cccc4cc(F)ccc34)c3ccc(Cl)c-2c31 (racemic)"
target_desc = "SUDHL10 cells"
class_label = "Met"

[[record]]
compound = "CCc1c2c(nn1C)C(CCN1CC(F)(F)C1)OCCCCn1c(C(=O)O)c(CCCOc3cccc4cc(F)ccc34)c3ccc(Cl)c-2c31 (racemic)"
target_desc = "SUDHL10 cells"
class_label = "Met"

[[record]]
compound = "CCc1c2c(nn1C)C(CCC(C)(C)O)OCCCCn1c(C(=O)O)c(CCCOc3cccc4cc(F)ccc34)c3ccc(Cl)c-2c31 (racemic)"
target_desc = "SUDHL10 cells"
class_label = "Met"

[[record]]
compound = "CCc1c2c(nn1C)C(CCN1CC(F)C1)OCCCCn1c(C(=O)O)c(CCCOc3cccc4cc(F)ccc34)c3ccc(Cl)c-2c31 (racemic)"
target_desc = "SUDHL10 cells"
class_label = "Met"

[[record]]
compound = "Cc1c2c(nn1C)C(CCN1CCOCC1)OCCCCn1c(C(=O)O)c(CCCOc3cccc4cc(F)ccc34)c3ccc(F)c-2c31 (racemic) [Example 19]"
target_desc = "SUDHL10 cells"
class_label = "Met"

[[record]]
compound = "CCc1c2c(nn1C)C(CC(C)(C)O)OCCCCn1c(C(=O)O)c(CCCOc3cccc4cc(F)ccc34)c3ccc(Cl)c-2c31 (racemic)"
target_desc = "SUDHL10 cells"
class_label = "Met"

[[record]]
compound = "CCc1c2c(nn1C)C(CCN(C)OC)OCCCCn1c(C(=O)O)c(CCCOc3cccc4cc(F)ccc34)c3ccc(Cl)c-2c31 (racemic)"
target_desc = "SUDHL10 cells"
class_label = "Met"


###

The following compounds are listed with their measured IC50 values.
- Tested on: SUDHL5 cells
- assay_comment: Antiproliferation assay SUDHL5 (Assay 7)
- Assay type: cell-based
- condition_description: Homo sapiens, SU-DHL-5, 72 h, 72 h, CellTiter-Glo; read-out: Antiproli SUDHL5 IC50 (median)
endpoint_label: IC50 (nM)

[[record]]
compound = "CCc1c2c(nn1C)C(CCN1CC(F)(F)C1)OCCCCn1c(C(=O)O)c(CCCOc3cccc4cc(F)ccc34)c3ccc(Cl)c-2c31 (racemic)"
target_desc = "SUDHL5 cells"
numeric_result = 71

[[record]]
compound = "Cc1c2c(nn1C)C(CCN1CCOCC1)OCCCCn1c(C(=O)O)c(CCCOc3cccc4cc(F)ccc34)c3ccc(F)c-2c31 (single isomer, unassigned; enantiomer 2) [Example 21]"
target_desc = "SUDHL5 cells"
numeric_result = 3400

[[record]]
compound = "CCc1c2c(nn1C)C(CCN1CCOCC1)OCCCCn1c(C(=O)O)c(CCCOc3cccc4cc(F)ccc34)c3ccc(Cl)c-2c31 (racemic)"
target_desc = "SUDHL5 cells"
numeric_result = 13

[[record]]
compound = "CCc1c2c(nn1C)C1CCCN1CCCCn1c(C(=O)O)c(CCCOc3cccc4cc(F)ccc34)c3ccc(Cl)c-2c31 (racemic)"
target_desc = "SUDHL5 cells"
numeric_result = 550

[[record]]
compound = "CCc1c2c(nn1C)C(CC(C)(C)O)OCCCCn1c(C(=O)O)c(CCCOc3cccc4cc(F)ccc34)c3ccc(Cl)c-2c31 (racemic)"
target_desc = "SUDHL5 cells"
numeric_result = 400

[[record]]
compound = "CCc1c2c(nn1C)C(C(F)(F)F)OCCCCn1c(C(=O)O)c(CCCOc3cccc4ccccc34)c3ccc(Cl)c-2c31 (racemic)"
target_desc = "SUDHL5 cells"
numeric_result = 170


###

Consider the following compounds and their measured pIC50 readings.
- target_desc: BCL-2 (Homo sapiens (Human))
- Sequence (P10415 1-211): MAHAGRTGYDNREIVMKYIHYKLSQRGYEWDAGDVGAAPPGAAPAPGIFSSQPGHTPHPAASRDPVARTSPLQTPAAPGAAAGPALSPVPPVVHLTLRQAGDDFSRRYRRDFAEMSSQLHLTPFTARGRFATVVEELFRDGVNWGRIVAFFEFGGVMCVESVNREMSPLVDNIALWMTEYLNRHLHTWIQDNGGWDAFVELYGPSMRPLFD
- assay_comment: Protein-protein interaction assay BCL-2/Bad BH3 peptide (BCL-2 assay, TR-FRET)
- condition_description: read-out: BCL-2 Assay IC50 (median)
pIC50: −log10 of the molar value.
endpoint_label: pIC50

[[record]]
compound = "CCc1c2c(nn1C)C(CC(C)(C)O)OCCCCn1c(C(=O)O)c(CCCOc3cccc4cc(F)ccc34)c3ccc(Cl)c-2c31 (single isomer, unassigned; enantiomer 21) [Example 54]"
result = "< 4.70"

[[record]]
compound = "COCCC1OCCCCn2c(C(=O)O)c(CCCOc3cccc4ccccc34)c3ccc(Cl)c(c32)-c2c1nn(C)c2C (racemic) [Example 37]"
result = "< 4.70"

[[record]]
compound = "Cc1c2c(nn1C)C(C)OCCCCn1c(C(=O)O)c(CCCOc3cccc4ccccc34)c3cccc-2c31 (racemic) [Example 1]"
result = "< 4.70"


###

pIC50 values, listed per item
- Tested on: SUDHL5 cells
- assay_comment: Induction of cytotoxicity in SUDHL5 cells (Assay 6)
- Format: cell-based
- condition_description: 5 h, CellTiter-Glo; read-out: Cytotox SUDHL5 IC50 (median)
- Procedure: Assay 6 Induction of Cytotoxicity Upon Treatment of Cells with Selected Compounds In principle, compounds that induce apoptosis will concomitantly induce cell cytotoxicity. Therefore, cytotoxicity assays were run in parallel in SUDHL5 and SUDHL10 cells. As a control, medium without cells was also added to the plate. Cells were incubated in a humidified incubator at 37° C. overnight. […] Finally, luminescence was read at 0.1 ms, with a gain of 3000 using the PHERAstar FS microplate reader (BMG Labtech).
pIC50: −log10 of the molar value.
endpoint_label: pIC50

[[record]]
compound = "CCc1c2c(nn1C)C(CCCN1CCOCC1)OCCCCn1c(C(=O)O)c(CCCOc3cccc4cc(F)ccc34)c3ccc(Cl)c-2c31 (single isomer, unassigned; enantiomer 1) [Example 66]"
target_desc = "SUDHL5 cells"
numeric_result = 6.96

[[record]]
compound = "CCc1c2c(nn1C)C(CCN1CC(F)(F)C1)OCCCCn1c(C(=O)O)c(CCCOc3cccc4cc(F)ccc34)c3ccc(Cl)c-2c31 (single isomer, unassigned; (-)) [Example 79]"
target_desc = "SUDHL5 cells"
numeric_result = 5.39

[[record]]
compound = "CCc1c2c(nn1C)C(CCN1CCC(F)(F)C1)OCCCCn1c(C(=O)O)c(CCCOc3cccc4cc(F)ccc34)c3ccc(Cl)c-2c31 (single isomer, unassigned; enantiomer 2) [Example 57]"
target_desc = "SUDHL5 cells"
numeric_result = 5.17

